src = ChEMBL document CHEMBL1157673

- MEASURED ON: Sodium-dependent dopamine transporter (Homo sapiens)
- Sequence (Q01959 whole entry): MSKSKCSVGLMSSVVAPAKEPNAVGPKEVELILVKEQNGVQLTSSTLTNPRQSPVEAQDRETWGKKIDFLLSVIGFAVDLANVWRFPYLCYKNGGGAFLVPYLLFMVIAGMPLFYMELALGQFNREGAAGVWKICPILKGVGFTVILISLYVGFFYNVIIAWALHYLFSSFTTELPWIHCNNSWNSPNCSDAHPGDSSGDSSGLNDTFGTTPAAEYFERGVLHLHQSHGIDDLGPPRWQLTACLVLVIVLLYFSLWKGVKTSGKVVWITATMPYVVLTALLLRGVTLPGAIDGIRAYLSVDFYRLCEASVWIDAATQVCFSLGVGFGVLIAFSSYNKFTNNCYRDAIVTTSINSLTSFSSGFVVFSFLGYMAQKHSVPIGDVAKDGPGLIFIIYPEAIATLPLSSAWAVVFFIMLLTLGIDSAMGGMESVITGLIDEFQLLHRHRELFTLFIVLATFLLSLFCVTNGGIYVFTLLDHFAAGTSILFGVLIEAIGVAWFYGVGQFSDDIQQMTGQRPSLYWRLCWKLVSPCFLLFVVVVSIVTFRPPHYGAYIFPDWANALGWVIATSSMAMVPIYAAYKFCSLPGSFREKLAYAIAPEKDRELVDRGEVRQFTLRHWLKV
- TEST SUMMARY: Displacement of [3H]WIN-35428 from human cloned DAT expressed in HEK293 cells
- Type: cell-based
- REPORTED CONDITIONS: in the assay text read “[3H]GBR12935” for “[3H]WIN-35428”
EXPERIMENTAL READOUT: pKi
Just so you know, pKi here is -log10 of the concentration in molar units; reply with that number alone.

# SMILES INPUT, EXPERIMENTAL READOUT, REPORTED
records = [
    ("Cc1ccc(Oc2ccc(OCCF)cc2CN(C)C)c(N)c1", "pKi", 5.38),
    ("Cc1ccc(Sc2cc(F)ccc2CN(C)C)c(N)c1", "pKi", 5.91),
    ("Cc1ccc(Oc2ccc(OCCCF)cc2CN(C)C)c(N)c1", "pKi", 5.16),
    ("Cc1ccc(Oc2cc(OCCF)ccc2CN(C)C)c(N)c1", "pKi", 6.14),
]

Continue with the molecule presented below.
State the recorded pKi for this entry: Cc1ccc(Oc2cc(F)ccc2CN(C)C)c(N)c1
6.02
